Listed here: items and their measured EC50.
tested_on: hPPARδ (Homo sapiens)
Construct: corresponding to the DEF domains (structural elements of the promoter of the PPARs: D=hinge, EF=ligand fixation domain and AF2 fixation site)
Sequence (Q03181 211-439 limits assumed): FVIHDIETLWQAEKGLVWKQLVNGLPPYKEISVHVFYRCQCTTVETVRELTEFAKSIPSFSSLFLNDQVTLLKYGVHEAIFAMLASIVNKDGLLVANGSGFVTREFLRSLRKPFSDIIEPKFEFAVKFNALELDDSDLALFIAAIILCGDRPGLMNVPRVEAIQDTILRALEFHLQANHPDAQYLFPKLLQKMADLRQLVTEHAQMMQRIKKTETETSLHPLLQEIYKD
measurement_description: Gal4-hPPARδ chimera transactivation (luciferase) in COS-7 cells
conditions_used: COS-7 cells, Gal4-hPPARδ, luciferase, 24 hours; read-out: PPARδ EC50
Numbers only here, please. The scale is nM.

- molecule: "COc1nc(-c2ccc(-c3ccccc3)cc2)ccc1CNc1ccc(CCC(=O)O)cc1 [Cpd 39]"
  scale_unit: "nM"
  observed_result: 1390

Input line: Given the entry COc1ncc(-c2ccc3ccccc3c2)cc1CNc1ccc(CCC(=O)O)cc1 [Cpd 50] , report its measured EC50.
Output line: 770

Input line: Given the entry COc1nc(-c2ccccc2)ccc1CNc1ccc(OCC(=O)O)cc1 [Cpd 4] , report its measured EC50.
Output line: 8670

###

tested_on: hPPARδ (Homo sapiens)
Construct: corresponding to the DEF domains (structural elements of the promoter of the PPARs: D=hinge, EF=ligand fixation domain and AF2 fixation site); expressed in transfected cells; host or cells: COS-7 (monkey kidney fibroblasts)
measurement_description: Gal4-hPPARδ chimera transactivation (luciferase) in COS-7 cells
Assay type: cell-based
conditions_used: relative to maximum activation obtained with GW501516; COS-7 cells, Gal4-hPPARδ, 24 hours; read-out: PPARδ TOP % (maximum activation)
Listed here: items and their measured Emax.
Numbers only here, please. The scale is %.

Worked examples, 6 molecules total:
- molecule: "COc1nc(-c2ccccc2)ccc1CNc1ccc(CCC(=O)O)cc1"
  Emax, %: 95.1
- molecule: "COc1nc(-c2ccccc2)ccc1CNc1ccc(SC(C)(C)C(=O)O)cc1"
  Emax, %: 85.7
- molecule: "CC(C)(C)Oc1nc(-c2ccccc2)ccc1CNc1ccc(OC(C)(C)C(=O)O)cc1"
  Emax, %: 74.2
- molecule: "COc1nc(-c2ccc(C(F)(F)F)cc2)ccc1COc1ccc(OC(C)(C)C(=O)O)cc1"
  Emax, %: 100
- molecule: "COc1nc(-c2ccccc2)ccc1COc1ccc(OCC(=O)O)cc1"
  Emax, %: 109
- molecule: "COc1nc(-c2ccccc2)ccc1CSc1ccc(CCC(=O)O)cc1"
  Emax, %: 94.7

Input line: Given the entry `COc1ncc(-c2ccc(C(F)(F)F)cc2)cc1CNc1ccc(CCC(=O)O)cc1` , report its measured Emax.
Output line: 107

Input line: Given the entry `COc1nc(-c2ccccc2)c(Br)cc1CNc1ccc(SCC(=O)O)cc1` , report its measured Emax.
Output line: 85.6

Input line: Given the entry CCC(Nc1ccc(CCC(=O)O)cc1)c1ccc(-c2ccccc2)nc1OC (centres unmarked) , report its measured Emax.
Output line: 108

Input line: Given the entry `COc1ncc(-c2ccccc2)cc1CNc1ccc(CCC(=O)O)cc1` , report its measured Emax.
Output line: 107

Input line: Given the entry `CC(C)(C)Oc1nc(-c2ccccc2)ccc1COc1ccc(OCC(=O)O)cc1` , report its measured Emax.
Output line: 96.5

###

tested_on: hPPARα (Homo sapiens)
Construct: corresponding to the DEF domains (structural elements of the promoter of the PPARs: D=hinge, EF=ligand fixation domain and AF2 fixation site)
Sequence (Q07869 239-466 limits assumed): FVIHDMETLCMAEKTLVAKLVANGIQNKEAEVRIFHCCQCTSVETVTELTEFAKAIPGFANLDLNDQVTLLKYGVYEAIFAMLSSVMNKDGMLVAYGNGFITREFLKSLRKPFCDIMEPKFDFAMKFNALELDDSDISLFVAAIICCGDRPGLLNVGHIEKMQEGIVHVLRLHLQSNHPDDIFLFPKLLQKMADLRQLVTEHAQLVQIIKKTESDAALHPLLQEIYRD
measurement_description: Gal4-hPPARα chimera transactivation (luciferase) in COS-7 cells
conditions_used: COS-7 cells, Gal4-hPPARα, luciferase, 24 hours; read-out: PPARα EC50
Checkbox rule: EC50 lower than 6 µM = true; EC50 not lower than 6 µM = false.

Input line: Please indicate whether the reported EC50 of COc1nc(-c2ccccc2)ccc1CNc1ccc(C(CC(=O)O)c2ccccc2)cc1 (stereo not drawn) is strictly below 6 µM.
Output line: true

Input line: Please indicate whether the reported EC50 of `COc1nc(-c2ccccc2)ccc1CNc1cccc(OC(C)(C)C(=O)O)c1` is strictly below 6 µM.
Output line: true

Input line: Please indicate whether the reported EC50 of `COc1ncc(-c2ccccc2)cc1CNc1ccc(CCC(=O)O)cc1` is strictly below 6 µM.
Output line: false

Input line: Please indicate whether the reported EC50 of `COc1nc(-c2ccccc2)ccc1CNc1ccc(OC(C)(C)C(=O)O)cc1` is strictly below 6 µM.
Output line: true

Input line: Please indicate whether the reported EC50 of `CC(C)Oc1nc(-c2ccccc2)ccc1CNc1ccc(CCC(=O)O)cc1` is strictly below 6 µM.
Output line: false

Input line: Please indicate whether the reported EC50 of `O=C(O)COc1ccc(OCc2ccc(-c3ccccc3)nc2N2CCCCC2)cc1` is strictly below 6 µM.
Output line: false

Input line: Please indicate whether the reported EC50 of `COc1nc(-c2ccccc2)ccc1CNc1ccc(CCC(=O)O)cc1` is strictly below 6 µM.
Output line: true

Input line: Please indicate whether the reported EC50 of `COc1nc(-c2ccccc2)ccc1CN(C)c1ccc(CCC(=O)O)cc1` is strictly below 6 µM.
Output line: true

Input line: Please indicate whether the reported EC50 of `COc1nc(-c2ccc(C(F)(F)F)cc2)ccc1COc1ccc(OCC(=O)O)cc1` is strictly below 6 µM.
Output line: true
